FYI, the data here is from patent EP0829478A2.

assay-protocol: Conversion of the azolium compounds to ketoconazole / itraconazole on incubation in human plasma
Assay type: in vitro ADME
assay-conditions: remaining parent compound, 10µg/ml, 37°C, incubation time 60 min, read-out: Observed (%) Comp. I
Description: The compounds of formula I were incubated with human plasma at a concentration of 10µg/ml at 37°C for up to 120 min.
assay-metric: remaining at 1 h (%)
The figure you give is taken to be in %; do not add the unit.

Notebook: CCC(C)n1ncn(-c2ccc(N3CCN(c4ccc(OCC5COC(Cn6c[n+](Cc7cc(C)c(OC(C)=O)c(C)c7)cn6)(c6ccc(Cl)cc6Cl)O5)cc4)CC3)cc2)c1=O (stereo not shown) , remaining at 1 h read as 47
